Each record here notes measured Efficacy (ELK-luciferase, relative to wild-type FGF21).
target: β-Klotho overexpressed in recombinant human 293T kidney cells; assay: cell-based or functional assay
Output spec: scalar in %, unitless text.

Some solved cases for reference:
binder="FGF21 truncation mutant 9-181 (ligand) LLQFGGQVRQRYLYTDDAQQTEAHLEIREDGTVGGAADQSPESLLQLKALKPGVIQILGVKTSRFLCQRPDGALYGSLHFDPEACSFRELLLEDGYNVYQSEAHGLPLHLPGNKSPHRDPAPRGPARFLPLPGLPPAPPEPPGILAPQPPDVGSSDPLSMVGPSQGRSPSYAS" value_reported=12.5
binder="FGF21 truncation mutant 3-181 (ligand) IPDSSPLLQFGGQVRQRYLYTDDAQQTEAHLEIREDGTVGGAADQSPESLLQLKALKPGVIQILGVKTSRFLCQRPDGALYGSLHFDPEACSFRELLLEDGYNVYQSEAHGLPLHLPGNKSPHRDPAPRGPARFLPLPGLPPAPPEPPGILAPQPPDVGSSDPLSMVGPSQGRSPSYAS" value_reported=130
binder="FGF21 truncation mutant 1-180 (ligand) HPIPDSSPLLQFGGQVRQRYLYTDDAQQTEAHLEIREDGTVGGAADQSPESLLQLKALKPGVIQILGVKTSRFLCQRPDGALYGSLHFDPEACSFRELLLEDGYNVYQSEAHGLPLHLPGNKSPHRDPAPRGPARFLPLPGLPPAPPEPPGILAPQPPDVGSSDPLSMVGPSQGRSPSYA" value_reported=93.2

Q. Using the record for FGF21 truncation mutant 5-181 (ligand) DSSPLLQFGGQVRQRYLYTDDAQQTEAHLEIREDGTVGGAADQSPESLLQLKALKPGVIQILGVKTSRFLCQRPDGALYGSLHFDPEACSFRELLLEDGYNVYQSEAHGLPLHLPGNKSPHRDPAPRGPARFLPLPGLPPAPPEPPGILAPQPPDVGSSDPLSMVGPSQGRSPSYAS , report its Efficacy (ELK-luciferase, relative to wild-type FGF21).
A. 120

Q. Using the record for FGF21 truncation mutant 1-178 (ligand) HPIPDSSPLLQFGGQVRQRYLYTDDAQQTEAHLEIREDGTVGGAADQSPESLLQLKALKPGVIQILGVKTSRFLCQRPDGALYGSLHFDPEACSFRELLLEDGYNVYQSEAHGLPLHLPGNKSPHRDPAPRGPARFLPLPGLPPAPPEPPGILAPQPPDVGSSDPLSMVGPSQGRSPS , report its Efficacy (ELK-luciferase, relative to wild-type FGF21).
A. 95

Q. Using the record for FGF21 truncation mutant 4-181 (ligand) PDSSPLLQFGGQVRQRYLYTDDAQQTEAHLEIREDGTVGGAADQSPESLLQLKALKPGVIQILGVKTSRFLCQRPDGALYGSLHFDPEACSFRELLLEDGYNVYQSEAHGLPLHLPGNKSPHRDPAPRGPARFLPLPGLPPAPPEPPGILAPQPPDVGSSDPLSMVGPSQGRSPSYAS , report its Efficacy (ELK-luciferase, relative to wild-type FGF21).
A. 117
